- assayed_target: M351T BCR-Abl (Homo sapiens, UniProt P00519, M351T)
- Construct: the other entry of the earlier key: BCR (P11274, Breakpoint cluster region protein)
- test_details: Antiproliferative effect on Ba/F3 cells expressing M351T BCR-Abl
- particulars: Ba/F3 cells expressing M351T mutant
In this section we review reported IC50 values for a set of compounds.
metric: IC50 (nM)

[
  {
    "compound_structure": "Cc1cn(-c2cc(C(=O)Nc3ccc(C)c(NC(=O)n4ccc5c(Nc6cccc(N(C)C)c6)ncnc54)c3)cc(C(F)(F)F)c2)cn1",
    "metric": "IC50",
    "endpoint_value": 29
  },
  {
    "compound_structure": "Cc1cn(-c2cc(C(=O)Nc3ccc(C)c(NC(=O)n4ccc5c(Nc6cccc(C(N)=O)c6)ncnc54)c3)cc(C(F)(F)F)c2)cn1",
    "metric": "IC50",
    "endpoint_value": 5
  }
]

* * *

- assayed_target: wild type BCR-Abl (Homo sapiens, UniProt P00519)
- Construct: the other entry of the earlier key: BCR (P11274, Breakpoint cluster region protein)
- test_details: Antiproliferative effect on Ba/F3 cells expressing wild type BCR-Abl
Quick reference for IC50 among some compounds

[
  {
    "compound_structure": "Cc1cn(-c2cc(C(=O)Nc3ccc(C)c(NC(=O)n4ccc5c(Nc6cccc(N(C)C)c6)ncnc54)c3)cc(C(F)(F)F)c2)cn1",
    "IC50 (nM)": 22
  },
  {
    "compound_structure": "Cc1cn(-c2cc(C(=O)Nc3ccc(C)c(NC(=O)n4ccc5c(Nc6cccc(C(N)=O)c6)ncnc54)c3)cc(C(F)(F)F)c2)cn1",
    "IC50 (nM)": 5
  }
]
